assay: NCI Yeast Anticancer Drug Screen. Data for the bub3 strain (AID 167); details: S. cerevisiae bub3 mutant strain, at 50.0 µM (retest, dose inferred, filed as 5.0)
About 79,000 compounds went through this panel and 15% of them were active in at least one assay; those are over-represented in the sample as a whole. The source made the active and inactive calls. Cut-off read from the data, not from the text of the source: active = growth inhibition above about 70%; inactive = the rest.
Write down one outcome, taken from active, inactive

In [3]: df
Out[3]:
                                   compound  label_class
0             CSC(=S)NN=C(c1ccccc1)c1ccccc1       active
1                     O=Cc1c(I)cc(I)c(O)c1I     inactive
2  Cc1cc2c(cc1S(=O)(=O)O)C1C(C3C2C2(Cl)C(Cl)=C(Cl)C3(Cl)C2(Cl)Cl)C2(Cl)C(Cl)=C(Cl)C1(Cl)C2(Cl)Cl (stereo not drawn)       active
3                   O=C1C=CC(=O)N1Cc1ccccc1       active
4  O=C1/C(=C\c2ccc(Cl)cc2Cl)Sc2scc(-c3cccc([N+](=O)[O-])c3)[n+]21       active

-- ask Field: outcome | Entry: COc1ccc(-c2nc(C)[nH]c(=O)c2Cc2c(O)ccc3ccccc23)cc1
-- reply inactive

-- ask Test call, this compound: CCOC(=O)c1cccc(C)c1C(=O)c1ccc(C)cc1C
-- reply inactive

-- ask Dear all, I need the recorded test outcome for CC(C)OC(=O)c1ccc(CCC2=CC(=O)C=CC2=O)cc1 , thank you.
-- reply active

-- ask Per the records of this test, what outcome belongs to C=CS(=O)(=O)Cc1ccc(Cl)cc1 ?
-- reply active

-- ask // outcome(item) with item = C=C1OC(=O)C(=O)N1CC(=O)O
-- reply inactive

-- ask Given O=[N+]([O-])c1ccc2nc(Nc3ccccc3)c(Nc3ccccc3)nc2c1 , state the outcome it received in this test.
-- reply active

-- ask Recorded test outcome, item CC1=C(C(=O)OCCO[N+](=O)[O-])C(c2ccccc2[N+](=O)[O-])C(C(=O)OC(C)C)=C(C)N1 (stereo not drawn)
-- reply active

-- ask Which result was noted for this compound in the test: O=P1(N2CCCCC2)N(Cc2ccc(Cl)cc2)CCCN1Cc1ccc(Cl)cc1
-- reply active

-- ask Which outcome was assigned to O=C1/C(=C\c2ccc(Cl)cc2)SC2SC=C(c3ccc([N+](=O)[O-])cc3)N12 (stereo not drawn) in this test?
-- reply active

* * *

test: NCI Yeast Anticancer Drug Screen. Data for the sgs1 mgt1 strain (AID 161);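 note: 0% = growth of cultures given vehicle only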; conditions: S. cerevisiae sgs1 mgt1 strain, at 50.0 µM, active compounds read high
The panel holds about 79,000 compounds, 15% with a hit somewhere; the sample as a whole holds those more often.
Reported growth inhibition is given for each of the following compounds.
Reply with just the number (in %).

// solved cases for growth inhibition follow
>>> print(df.to_string())
                                   compound            measure  u  value
0    CCCCC(=O)c1nc(N(CC2CCCCC2)C(=O)NC)sc1N  growth inhibition  %   7.75
1                             C#CCNC(C)(C)C  growth inhibition  %     86
2  CC(Nc1ccc(S(=O)(=O)Nc2ncccn2)cc1)c1ccc2cccnc2c1O (configuration not stated)  growth inhibition  %   98.5
3               CCCCCCCCCCCCCCCCOS(=O)(=O)O  growth inhibition  %   98.8

Reported growth inhibition of COC(=O)CSC(=S)Nc1ccc(Cl)cc1 : 44.3

GET /value?item= [O-][N+]1=C2CCC/C(=N/O)C2(O)C2CCCCC21N1CCOCC1 (configuration not stated) &field=growth inhibition returns -2.1

The measured growth inhibition associated with CNc1nc(N)nc(N(C)c2ccc(Br)cc2)c1N=O reads 17.6

* * *

assay: NCI Yeast Anticancer Drug Screen. Data for the mec2-1 strain (AID 157); conditions: S. cerevisiae mec2-1 strain, at 5.0 µM (retest, dose inferred, filed as 0.5)
Compounds without any hit were thinned out: in the full panel of roughly 79,000, 15% have a hit. Active and inactive are the calls of the source. Cut-off read from the data, not from the text of the source: active = growth inhibition above about 70%; inactive = the rest.
Write down one outcome, taken from t (active), f (inactive)

In [3]: df
Out[3]:
                                   compound  label_class
0          C[n+]1c2ccccc2cc2[nH]c3ccccc3c21            t
1  CC1(C)c2ccccc2-c2nc3ccccc3cc2C1Br (configuration not stated)            f
2                  CCCCCCCCCCCCCCCCN1CCSCC1            f

-- ask Outcome? O=[N+]([O-])c1ccc(C2=Nn3c(nnc3-c3ccc(Cl)cc3)SC2)o1
-- reply f

-- ask State the result this test recorded for Cc1ccc(S(=O)(=O)OCC(/C=N/NC(N)=O)OCOC(C)/C=N/NC(N)=O)cc1 (configuration not stated) .
-- reply f

-- ask Which outcome was assigned to COC1=Nc2ccccc2/C=C\c2ccccc21 in this test?
-- reply f

-- ask Query: recorded result category for O=C(CCC(O)(c1ccccc1)c1ccccc1)c1ccccc1 in this test
-- reply f

-- ask Tell me the recorded outcome of this test for COc1cc(/C=C\C(=O)c2cccc(O)c(=O)c2)cc(OC)c1OC .
-- reply f

* * *

test: NCI Yeast Anticancer Drug Screen. Data for the mlh1 rad18 strain (AID 175); settings: S. cerevisiae mlh1 rad18 strain growth inhibition; at 50.0 µM; active compounds read high
Compounds without any hit were thinned out: in the full panel of roughly 79,000, 15% have a hit. Calls of active or inactive are those of the source. Rule as the data show it: active = growth inhibition above about 70%; inactive = the rest.
Measure: growth inhibition

In [3]: df
Out[3]:
                                   molecule            measure            value
0                  CC(C)SC(=S)Nc1ccc(Cl)cc1  growth inhibition   98.9% (active)
1                  CN(C)c1nc(=NCc2ccco2)ss1  growth inhibition  9.8% (inactive)
2  CC(=O)O[C@@H]1CO[C@H]2O[C@H]3[C@@H](C(C=O)=C[C@H](O)[C@@H]4C5=C(C(C)C)CC[C@]5(C)CC[C@@]34C)[C@@]2(O)C1=O  growth inhibition   91.7% (active)

With those in mind, consider the next molecule.
Form: molecule = Cc1ccc2c(c1)C(O)(c1ccccc1)CCS2 (stereo not drawn) ; growth inhibition = 94.3% (active)

* * *

assay: NCI Yeast Anticancer Drug Screen. Data for the mec2-1 strain (AID 157); conditions: S. cerevisiae mec2-1 strain, at 50.0 µM (retest, dose inferred, filed as 5.0)
About 79,000 compounds went through this panel and 15% of them were active in at least one assay; those are over-represented in the sample as a whole. Calls of active or inactive are those of the source. Cut-off read from the data, not from the text of the source: active = growth inhibition above about 70%; inactive = the rest.
Returns: one label drawn from active, inactive

These recorded examples may help you get a feel for the data.
In [3]: df
Out[3]:
                                   compound  label_class
0  CC1=C(C(=O)Nc2ccc([N+](=O)[O-])cc2)C(c2ccccc2F)C(C(=O)Nc2ccc([N+](=O)[O-])cc2)=C(C)N1     inactive
1  O=C1c2ccccc2C(=O)C2(C(c3ccccc3)c3ccccc3)N=NCC12 (stereo unspecified)     inactive

-- ask GET /call?item= Brc1ccc(C2c3ccccc3-c3ccccc32)cc1 returns the recorded outcome of this test.
-- reply active

-- ask Given C#CC(CC(C)CC(C)(C)C)NC (stereo unspecified) , state the outcome it received in this test.
-- reply inactive

-- ask Which outcome was assigned to O=C(/C=C/C(=O)N1CCCC1)N1CCCC1 in this test?
-- reply inactive

-- ask What outcome does the record of this test show for CC(c1ccccc1)[P+](c1ccccc1)(c1ccccc1)c1ccccc1 (stereo unspecified) ?
-- reply active

* * *

experiment: NCI Yeast Anticancer Drug Screen. Data for the rad50 strain (AID 155);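 note: 0% = growth of vehicle-only cultures of the same strain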; details: S. cerevisiae rad50 strain growth inhibition; at 50.0 µM (retest, dose inferred, filed as 5.0); active compounds read high
About 79,000 compounds went through this panel and 15% of them were active in at least one assay; those are over-represented in the sample as a whole.
Note to self: class labels come from recorded growth inhibition, ranges listed here: group 1 = under 40%, group 2 = from 40% up to 80%, group 3 = 80% and over

>>> df
                                   compound  label_class
0  COc1ccc(/C(Cl)=C(\C=O)c2ccc(Cl)c(Cl)c2)cc1      group 2

-- ask Class for O=C(CCC(O)(c1ccccc1)c1ccccc1)c1ccccc1 ?
-- reply group 3

-- ask Just checking, what class would you give O=[N+]([O-])c1ccc(/C=N\OCc2cscn2)cc1 here?
-- reply group 2

-- ask Which growth inhibition category applies to S=C(Nc1ccccn1)c1ccccn1 here?
-- reply group 1

-- ask Category of CN(Cc1cc(Cl)cc(Cl)c1)CC(C(=O)c1ccccc1)c1ccccc1 (stereo not given) , please.
-- reply group 3

-- ask Please let me know in which category the item NC(N)=N/N=C(\c1ccc(F)cc1)c1ccc(C(F)(F)F)cc1 belongs.
-- reply group 3
